- Assay System: integrin α4β1 (Homo sapiens, UniProt P05556+P13612)
- Construct: cell strain Jurkat (ATCC TIB-152) of human T cells, known to express integrin α4β1; endogenous in cells
- Sequence (P13612 34-1032): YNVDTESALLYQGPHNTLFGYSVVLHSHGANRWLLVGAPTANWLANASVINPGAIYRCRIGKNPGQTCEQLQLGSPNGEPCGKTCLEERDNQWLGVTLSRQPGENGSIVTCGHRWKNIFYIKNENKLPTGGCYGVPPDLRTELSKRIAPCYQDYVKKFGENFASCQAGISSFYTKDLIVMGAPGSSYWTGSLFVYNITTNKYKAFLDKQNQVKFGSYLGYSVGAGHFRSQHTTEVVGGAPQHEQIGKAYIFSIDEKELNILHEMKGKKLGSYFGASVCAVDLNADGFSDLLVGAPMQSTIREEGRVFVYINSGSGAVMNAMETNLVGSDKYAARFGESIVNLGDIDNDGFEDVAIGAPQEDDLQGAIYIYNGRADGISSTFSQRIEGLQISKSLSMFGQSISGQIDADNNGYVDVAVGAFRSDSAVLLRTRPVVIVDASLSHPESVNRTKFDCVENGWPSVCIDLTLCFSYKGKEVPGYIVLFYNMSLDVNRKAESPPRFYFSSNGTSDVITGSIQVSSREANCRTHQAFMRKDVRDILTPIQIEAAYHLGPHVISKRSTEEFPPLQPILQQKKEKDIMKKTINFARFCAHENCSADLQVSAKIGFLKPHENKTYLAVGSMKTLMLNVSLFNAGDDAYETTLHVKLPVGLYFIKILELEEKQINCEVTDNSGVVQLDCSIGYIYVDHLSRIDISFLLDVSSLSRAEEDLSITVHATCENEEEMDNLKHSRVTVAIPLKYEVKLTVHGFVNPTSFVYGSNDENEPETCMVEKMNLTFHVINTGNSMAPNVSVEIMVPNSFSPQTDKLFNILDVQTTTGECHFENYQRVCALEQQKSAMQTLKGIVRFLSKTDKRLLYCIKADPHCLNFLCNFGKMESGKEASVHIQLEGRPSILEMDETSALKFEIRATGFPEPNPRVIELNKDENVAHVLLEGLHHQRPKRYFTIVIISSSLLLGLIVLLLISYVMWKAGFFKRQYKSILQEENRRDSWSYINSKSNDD
- Sequence (P05556 21-798): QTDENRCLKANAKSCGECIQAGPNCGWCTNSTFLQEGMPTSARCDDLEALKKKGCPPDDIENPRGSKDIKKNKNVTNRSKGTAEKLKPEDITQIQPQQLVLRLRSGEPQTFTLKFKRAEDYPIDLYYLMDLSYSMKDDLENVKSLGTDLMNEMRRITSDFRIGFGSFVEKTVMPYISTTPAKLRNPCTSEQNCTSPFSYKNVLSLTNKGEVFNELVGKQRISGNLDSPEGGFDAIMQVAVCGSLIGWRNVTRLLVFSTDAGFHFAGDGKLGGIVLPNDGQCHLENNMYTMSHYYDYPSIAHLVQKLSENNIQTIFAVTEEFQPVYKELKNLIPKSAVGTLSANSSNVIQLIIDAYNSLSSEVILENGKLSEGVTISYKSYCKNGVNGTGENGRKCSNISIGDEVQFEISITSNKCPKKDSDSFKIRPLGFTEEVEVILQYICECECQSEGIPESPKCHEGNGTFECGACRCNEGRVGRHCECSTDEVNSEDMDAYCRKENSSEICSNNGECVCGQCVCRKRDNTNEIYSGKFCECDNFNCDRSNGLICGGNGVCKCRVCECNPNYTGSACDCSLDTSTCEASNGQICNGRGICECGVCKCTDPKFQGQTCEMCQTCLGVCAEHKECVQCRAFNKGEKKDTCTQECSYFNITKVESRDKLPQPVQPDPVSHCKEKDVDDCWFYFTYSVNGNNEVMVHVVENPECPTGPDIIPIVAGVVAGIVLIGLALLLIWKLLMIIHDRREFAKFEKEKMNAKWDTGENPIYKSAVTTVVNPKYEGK
- Protocol Description: VCAM antagonist activity (VCAM-1/α4β1 binding assay), Jurkat cells binding to VCAM-1
- Condition Details: Jurkat human T cells binding to recombinant human VCAM-1; read-out: VCAM antagonistic activity (IC50) α4β1

{"Smiles Data": "O=C(N[C@@H](Cc1ccc(-n2c(=O)[nH]c3c(Cl)cccc3c2=O)cc1)C(=O)O)c1c(Cl)cccc1Cl", "IC50, µM": 0.34}
{"Smiles Data": "Cc1cccc(C)c1C(=O)N[C@@H](Cc1ccc(-n2c(-c3ccccc3)nc3ccccc3c2=O)cc1)C(=O)O", "IC50, µM": 6.73}
{"Smiles Data": "CCCCc1nc2ccccc2c(=O)n1-c1ccc(C[C@H](NC(=O)c2c(C)cccc2C)C(=O)O)cc1", "IC50, µM": 3.41}
{"Smiles Data": "CCOc1nc2ccc(Cl)cc2c(=O)n1-c1ccc(C[C@H](NC(=O)c2c(Cl)cccc2Cl)C(=O)O)cc1", "IC50, µM": 4.03}
{"Smiles Data": "COc1ccc2c(=O)n(-c3ccc(C[C@H](NC(=O)c4c(Cl)cccc4Cl)C(=O)O)cc3)c(=O)oc2c1", "IC50, µM": 0.107}
{"Smiles Data": "Cc1cccc2c1c(=O)n(-c1ccc(C[C@H](NC(=O)c3c(Cl)cccc3Cl)C(=O)O)cc1)c(=O)n2Cc1ccccc1", "IC50, µM": 1.5}
{"Smiles Data": "COc1cc2[nH]c(=O)n(-c3ccc(C[C@H](NC(=O)c4c(Cl)cccc4Cl)C(=O)O)cc3)c(=O)c2cc1OC", "IC50, µM": 1.18}
